- protocol-details: Mean relative potency is the ratio of potencies of 'Ac-(Cha)RAMASL-NH2' and compound to inhibit MHC class II DRB1*0101
Starred links: 1 amine or outer side, 2 acyl side, 3 side chain; linkers in the order of their positions; H or OH if unused. Non-standard residues stand in square brackets, D forms with d. Residues, ends and D or L forms follow the SMILES beside them. Haic = O=C1[C@@H](N[*:1])CCc2cccc3c2N1[C@H](C(=O)[*:2])C3; NMePhg = CN[C@H](C(=O)O)c1ccccc1; Cha = N[C@@H](CC1CCCCC1)C(=O)O; NMeL = CN[C@@H](CC(C)C)C(=O)O; NMeA = CN[C@@H](C)C(=O)O
experimental-readout: Mean relative potency

Consider the reported Mean relative potency for these molecules:
1. CC(=O)N[C@@H](CC1CCCCC1)C(=O)N[C@@H](CCCN=C(N)N)C(=O)N(C)[C@H](C(=O)N[C@H]1CCc2cccc3c2N(C1=O)[C@H](C(=O)N[C@@H](CO)C(=O)N(C)[C@@H](CC(C)C)C(N)=O)C3)c1ccccc1 (Ac-[Cha]R[NMePhg][Haic]S[NMeL]-NH2) ... 0.01
2. CSCC[C@@H](NC(=O)[C@H](NC(=O)[C@H](CCCN=C(N)N)NC(=O)[C@H](CC1CCCCC1)NC(C)=O)C(C)(C)C)C(=O)N(C)[C@@H](C)C(=O)N[C@@H](CO)C(=O)N[C@H](C(N)=O)C(C)(C)C ... 0.29
3. CSCC[C@@H](NC(=O)[C@@H](c1ccccc1)N(C)C(=O)[C@H](CCCN=C(N)N)NC(=O)[C@H](CC1CCCCC1)NC(C)=O)C(=O)N[C@@H](C)C(=O)N[C@@H](CO)C(=O)N[C@H](C(N)=O)C(C)(C)C ... 1.15

I = CSCCC(NC(=O)[C@H]1Cc2ccccc2CN1C(=O)[C@H](CCCN=C(N)N)NC(=O)[C@H](CC1CCCCC1)NC(C)=O)C(=O)N(C)[C@@H](C)C(=O)N[C@@H](CO)C(=O)N(C)[C@@H](C)C(N)=O (stereo partly specified)
II = CC(=O)N[C@@H](CC1CCCCC1)C(=O)N[C@@H](CCCN=C(N)N)C(=O)N(C)[C@@H](C)C(=O)N[C@H]1CCc2cccc3c2N(C1=O)[C@H](C(=O)N[C@@H](CO)C(=O)N(C)[C@@H](CC(C)C)C(N)=O)C3 (Ac-[Cha]R[NMeA][Haic]S[NMeL]-NH2)
III = CSCC[C@@H](NC(=O)[C@@H](c1ccccc1)N(C)C(=O)[C@H](CCCN=C(N)N)NC(=O)[C@H](CC1CCCCC1)NC(C)=O)C(=O)N(C)[C@@H](C)C(=O)N[C@@H](CO)C(=O)N[C@H](C(N)=O)C(C)(C)C
Problem: # rank_down: sort by Mean relative potency, max first Put the labels in the requested order and list them out.
Result: III, I, II

---

- protocol-details: Mean relative potency is the ratio of potencies of 'Ac-(Cha)RAMASL-NH2' and compound, to inhibit MHC class II DRB1*0401
Starred links: 1 amine or outer side, 2 acyl side, 3 side chain; linkers in the order of their positions; H or OH if unused. Non-standard residues stand in square brackets, D forms with d. Residues, ends and D or L forms follow the SMILES beside them. X6 = CC1CCC(C[C@H](N[*:1])C(=O)[*:2])CC1; Cha = N[C@@H](CC1CCCCC1)C(=O)O; NMeA = CN[C@@H](C)C(=O)O
experimental-readout: Mean relative potency

1) CSCC[C@H](NC(=O)[C@H](C)NC(=O)[C@H](CCCN=C(N)N)NC(=O)[C@H](CC1CCC(C)CC1)NC(C)=O)C(=O)N[C@@H](C)C(=O)N[C@@H](CO)C(=O)N[C@@H](CC(C)C)C(N)=O (some centres undefined) (Ac-[X6]RAMASL-NH2) ... 1.71

A = CSCC[C@H](NC(=O)[C@H](C)NC(=O)[C@H](CCCN=C(N)N)NC(=O)[C@H](CC1CCCCC1)NC(C)=O)C(=O)N(C)[C@@H](C)C(=O)N[C@@H](CO)C(=O)N[C@@H](CC(C)C)C(N)=O (Ac-[Cha]RAM[NMeA]SL-NH2)
B = CSCC[C@@H](NC(=O)[C@H]1Cc2ccccc2CN1C(=O)[C@H](CCCN=C(N)N)NC(=O)[C@H](CC1CCCCC1)NC(C)=O)C(=O)N1CCC(c2ccccc2)[C@@H]1C(=O)N[C@@H](CO)C(=O)N(C)[C@@H](CC(C)C)C(N)=O (some centres undefined)
C = CC[C@@H](C)[C@H](NC(=O)[C@H](C)NC(=O)[C@H](CCCN=C(N)N)NC(=O)[C@H](CC1CCCCC1)NC(C)=O)C(=O)N[C@@H](C)C(=O)N[C@@H](CO)C(=O)N[C@@H](CC(C)C)C(N)=O
Problem: Rank order required: Mean relative potency, descending. Kindly provide the labels arranged according to the requested ordering.
Result: C, A, B
